# System: Staphylococcus aureus
# Experimental protocol: Minimum inhibitory concentration against Staphylococcus aureus in vitro.
# Format: functional
# key: entry, value: log10(MIC)
Please keep in mind that the values are log10 of MIC expressed in µg/mL.

Here COC(=O)NCCC[C@H](N)CC(=O)N(C)C1CN=C(NC(N)=O)NC1=O (stereo partly specified) was tested on Staphylococcus aureus, and its log10(MIC) came to 2.00

Here CN(C(=O)C[C@@H](N)CCC/N=C(/N)S)C1CN=C(NC(N)=O)NC1=O.Cl (stereo partly specified) was tested on Staphylococcus aureus, and its log10(MIC) came to -0.40

Here C/C(N)=N/CCC[C@H](N)CC(=O)N(C)C1CN=C(NC(N)=O)NC1=O.Cl.Cl (stereo partly specified) was tested on Staphylococcus aureus, and its log10(MIC) came to -0.40

Here CCNCCC[C@H](N)CC(=O)N(C)C1CN=C(NC(N)=O)NC1=O.Cl.Cl (stereo partly specified) was tested on Staphylococcus aureus, and its log10(MIC) came to -0.10

Here CN(C(=O)C[C@H](N)CCCN)C1CN=C(NC(N)=O)NC1=O.Cl.Cl (stereo partly specified) was tested on Staphylococcus aureus, and its log10(MIC) came to 0.80

Here CN(C(=O)C[C@@H](N)CC[C@H](N)CO)C1CN=C(NC(N)=O)NC1=O.Cl.Cl (stereo partly specified) was tested on Staphylococcus aureus, and its log10(MIC) came to 0.51

Here CN(C(=O)CC(N)CC1CNCCO1)C1CN=C(NC(N)=O)NC1=O.Cl.Cl (stereo unspecified) was tested on Staphylococcus aureus, and its log10(MIC) came to 0.80

Here CN(C(=O)C[C@@H](N)CC(=O)CCN)C1CN=C(NC(N)=O)NC1=O.Cl.Cl (stereo partly specified) was tested on Staphylococcus aureus, and its log10(MIC) came to 0.51

---

# Experimental protocol: In vitro selectivity ratio of procaryotic translation to eukaryotic translation
# Assay type: functional
# key: entry, value: Selectivity ratio
Answer using only a numeral; do not append any unit.

| Compound | Selectivity ratio |
| --- | --- |
| CN(C(=O)C[C@@H](N)CCC/N=C(/N)S)C1CN=C(NC(N)=O)NC1=O.Cl (stereo partly specified) | 1 |
| CN(C(=O)C[C@@H](N)CCCCN=C(N)N)C1CN=C(NC(N)=O)NC1=O.Cl.Cl (stereo partly specified) | 5.3 |
| CN(C(=O)C[C@@H](N)CCCN)C1CN=C(NC(N)=O)NC1=O.Cl.Cl (stereo partly specified) | 1.9 |
| CN(C(=O)CC(N)c1cccc(NC(=N)N)c1)C1CN=C(NC(N)=O)NC1=O.Cl.Cl (stereo unspecified) | 0.52 |
| CN(C(=O)C[C@@H](N)CCN=C(N)N)C1CN=C(NC(N)=O)NC1=O.Cl.Cl (stereo partly specified) | 1 |

Consider the record given below.
Just so you know, measured Selectivity ratio for CCNCCC[C@H](N)CC(=O)N(C)C1CN=C(NC(N)=O)NC1=O.Cl.Cl (stereo partly specified) came out at 1.9

---

# Experimental protocol: In vitro inhibition of eucaryotic translation using […].
# Assay type: functional
Assay metric: IC50
The answer consists of two parts: a number and, after it, its unit.

Just so you know, measured IC50 for CN(C(=O)C[C@@H](N)CCCC#N)C1CN=C(NC(N)=O)NC1=O.Cl (some centres undefined) came out at 25000 nM

Just so you know, measured IC50 for CN(C(=O)C[C@@H](N)CC[C@H](N)CO)C1CN=C(NC(N)=O)NC1=O.Cl.Cl (some centres undefined) came out at 2400 nM

Just so you know, measured IC50 for CN(C(=O)CC(N)c1cccc(NC(=N)N)c1)C1CN=C(NC(N)=O)NC1=O.Cl.Cl (centres undefined) came out at 260 nM
